- assayed_system: NR1wt/NR2Bwt receptors (Homo sapiens, UniProt Q05586+Q13224)
- Sequence (Q13224 27-1484, other chains not shown): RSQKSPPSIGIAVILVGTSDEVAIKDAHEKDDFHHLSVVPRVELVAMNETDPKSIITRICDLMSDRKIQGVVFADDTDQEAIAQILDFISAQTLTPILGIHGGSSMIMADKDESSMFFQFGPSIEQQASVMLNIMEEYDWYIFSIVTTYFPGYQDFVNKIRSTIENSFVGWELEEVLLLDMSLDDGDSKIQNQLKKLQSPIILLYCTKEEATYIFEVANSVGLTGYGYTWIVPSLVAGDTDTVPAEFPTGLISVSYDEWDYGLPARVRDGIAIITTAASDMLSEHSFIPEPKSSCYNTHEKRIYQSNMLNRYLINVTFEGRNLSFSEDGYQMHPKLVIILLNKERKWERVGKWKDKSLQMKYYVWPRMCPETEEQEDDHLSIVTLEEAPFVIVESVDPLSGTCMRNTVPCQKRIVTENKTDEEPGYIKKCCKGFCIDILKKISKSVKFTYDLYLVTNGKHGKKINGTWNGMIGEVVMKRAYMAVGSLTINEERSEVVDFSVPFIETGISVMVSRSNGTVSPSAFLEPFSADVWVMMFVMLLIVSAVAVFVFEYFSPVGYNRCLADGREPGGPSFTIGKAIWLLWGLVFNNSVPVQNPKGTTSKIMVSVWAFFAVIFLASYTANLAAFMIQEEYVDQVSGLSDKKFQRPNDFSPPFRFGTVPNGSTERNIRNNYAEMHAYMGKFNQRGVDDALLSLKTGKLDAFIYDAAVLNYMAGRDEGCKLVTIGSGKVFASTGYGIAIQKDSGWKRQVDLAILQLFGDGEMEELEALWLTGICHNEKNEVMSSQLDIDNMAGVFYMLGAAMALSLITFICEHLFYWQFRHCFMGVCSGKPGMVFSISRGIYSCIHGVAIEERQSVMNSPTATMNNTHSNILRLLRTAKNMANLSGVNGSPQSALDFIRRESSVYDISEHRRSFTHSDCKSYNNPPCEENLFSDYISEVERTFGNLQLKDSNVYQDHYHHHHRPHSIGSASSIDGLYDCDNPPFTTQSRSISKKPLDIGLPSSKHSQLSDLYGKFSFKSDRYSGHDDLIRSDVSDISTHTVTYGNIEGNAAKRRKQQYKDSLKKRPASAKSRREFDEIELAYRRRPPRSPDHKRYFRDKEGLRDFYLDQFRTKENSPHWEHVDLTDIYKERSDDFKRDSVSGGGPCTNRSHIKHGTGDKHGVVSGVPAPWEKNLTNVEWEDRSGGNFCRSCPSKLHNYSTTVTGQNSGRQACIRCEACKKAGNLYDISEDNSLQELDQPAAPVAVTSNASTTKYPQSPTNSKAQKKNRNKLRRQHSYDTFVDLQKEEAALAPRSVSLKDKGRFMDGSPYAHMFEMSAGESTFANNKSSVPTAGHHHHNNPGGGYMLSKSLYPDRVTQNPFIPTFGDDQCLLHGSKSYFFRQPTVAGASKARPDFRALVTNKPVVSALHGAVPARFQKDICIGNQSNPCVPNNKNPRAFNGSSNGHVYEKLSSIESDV
- test_method_notes: Zinc sensitivity
pIC50: −log10 of the molar value.

# compound, assayed_system, pIC50
data = [
    ("[Zn+2] [Zinc, zinc]", "NR1wt/NR2Bwt receptors (Homo sapiens, UniProt Q05586+Q13224)", 6.14),
]

* * *

- assayed_system: NR1wt/NR2B-(2A NTD) receptors
- test_method_notes: Zinc sensitivity
value_kind: IC50 (nM)

# smiles_record, assayed_system, recorded_result
rows = [
    ("[Zn+2]", "NR1wt/NR2B-(2A NTD) receptors", 0.2),
]

* * *

- assayed_system: NR1wt/NR2D-(2A NTD+L) receptors
- test_method_notes: Zinc sensitivity
pIC50: −log10 of the molar value.
value_kind: pIC50

# molecule, value_kind, recorded_result
rows = [
    ("[Zn+2] [Zinc, zinc]", "pIC50", 8.82),
]
